# Target of assay: M-phase inducer phosphatase 2 (Homo sapiens)
# Test details: Inhibition of recombinant phosphatase activity of Cdc25B catalytic domain expressed in Escherichia coli BL21(DE3) using OMFP as substrate at 100 uM after 15 mins by fluorimetric assay
Give inhibition for every item shown.
Number in %, nothing else.

Qu. Request - read-out inhibition | tested on M-phase inducer phosphatase 2 (Homo sapiens) | molecule Cn1c(COc2ccccc2C(=O)O)nc2ccccc21
Ans. 43

Qu. Request - read-out inhibition | tested on M-phase inducer phosphatase 2 (Homo sapiens) | molecule O=C(O)CCc1c2ccc(=O)c(O)c-2oc2c(O)c(O)ccc12
Ans. 99

Qu. Request - read-out inhibition | tested on M-phase inducer phosphatase 2 (Homo sapiens) | molecule Sc1ccc2ccccc2c1CNCc1ccccc1
Ans. 60

Qu. Request - read-out inhibition | tested on M-phase inducer phosphatase 2 (Homo sapiens) | molecule O=C(O)c1ccccc1-c1ccccc1C(=O)Nc1ccc2c(c1)nc(O)c1ccccc12
Ans. 45

Qu. Request - read-out inhibition | tested on M-phase inducer phosphatase 2 (Homo sapiens) | molecule CC1C2C=CC1C(c1c3ccc(=O)c(O)c-3oc3c(O)c(O)ccc13)C2C(=O)O (stereo not given)
Ans. 98

Qu. Request - read-out inhibition | tested on M-phase inducer phosphatase 2 (Homo sapiens) | molecule NS(=O)(=O)c1cc2c(cc1Cl)N=C(CCC(=O)O)NS2(=O)=O
Ans. 41

Qu. Request - read-out inhibition | tested on M-phase inducer phosphatase 2 (Homo sapiens) | molecule O=C(O)c1ccc(C(=O)c2ccccc2C(=O)O)cc1C(=O)O
Ans. 80

Qu. Request - read-out inhibition | tested on M-phase inducer phosphatase 2 (Homo sapiens) | molecule COc1ccc(Cc2ccc3nc(O)cc(C)c3c2)cc1S(=O)(=O)O
Ans. 41

Qu. Request - read-out inhibition | tested on M-phase inducer phosphatase 2 (Homo sapiens) | molecule O=C(Nc1ccc2ncccc2c1)Nc1ccc2ncccc2c1
Ans. 32

Qu. Request - read-out inhibition | tested on M-phase inducer phosphatase 2 (Homo sapiens) | molecule O=C(O)C1CCCN1Cc1c[nH]c2ccccc12 (stereo not given)
Ans. 37

----------
# Target of assay: M-phase inducer phosphatase 3 (Homo sapiens)
# Test details: Inhibition of recombinant phosphatase activity of Cdc25C catalytic domain expressed in Escherichia coli BL21(DE3) using OMFP as substrate at 100 uM after 15 mins by fluorimetric assay
Measured property: inhibition (%)
Number in %, nothing else.

Qu. For the molecule shown here, O=C(O)C1CCCN1Cc1c[nH]c2ccccc12 (stereo not drawn) , give the reported inhibition.
Ans. 45

Qu. For the molecule shown here, O=C(O)CCc1c2ccc(=O)c(O)c-2oc2c(O)c(O)ccc12 , give the reported inhibition.
Ans. 99

Qu. For the molecule shown here, NS(=O)(=O)c1cc2c(cc1Cl)N=C(CCC(=O)O)NS2(=O)=O , give the reported inhibition.
Ans. 47

----------
# Target of assay: M-phase inducer phosphatase 2 (Homo sapiens) (UniProt P30305)
# Sequence (whole entry): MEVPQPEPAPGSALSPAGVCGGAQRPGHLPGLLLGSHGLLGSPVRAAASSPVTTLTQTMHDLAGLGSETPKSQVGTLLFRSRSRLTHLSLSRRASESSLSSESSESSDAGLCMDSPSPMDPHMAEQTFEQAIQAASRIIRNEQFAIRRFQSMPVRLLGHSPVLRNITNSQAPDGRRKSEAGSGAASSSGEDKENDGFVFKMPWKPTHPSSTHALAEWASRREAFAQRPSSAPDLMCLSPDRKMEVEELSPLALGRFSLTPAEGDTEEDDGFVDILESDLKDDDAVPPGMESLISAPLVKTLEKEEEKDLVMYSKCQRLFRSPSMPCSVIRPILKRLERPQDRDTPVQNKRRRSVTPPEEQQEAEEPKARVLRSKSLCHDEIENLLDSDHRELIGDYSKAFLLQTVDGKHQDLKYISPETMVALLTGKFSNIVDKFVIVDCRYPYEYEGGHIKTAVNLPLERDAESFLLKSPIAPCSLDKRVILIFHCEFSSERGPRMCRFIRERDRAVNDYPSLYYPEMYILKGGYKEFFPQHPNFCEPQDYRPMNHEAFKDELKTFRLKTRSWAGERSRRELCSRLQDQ
# Test details: Inhibition of recombinant phosphatase activity of Cdc25B catalytic domain expressed in Escherichia coli BL21(DE3) using OMFP as substrate at 100 uM after 15 mins by fluorimetric assay
Give inhibition for every item shown.
Number in %, nothing else.

Qu. For the compound shown here, CC(C)(Oc1ccc(-c2cccc3ccccc23)cc1)C(=O)O , give the reported inhibition.
Ans. 40

Qu. For the compound shown here, CC1=NN(c2ccc(S(=O)(=O)O)cc2)C(=O)/C1=C/c1ccc(Cl)cc1 , give the reported inhibition.
Ans. 46

Qu. For the compound shown here, Nc1ccc(-c2ccc(Nc3cc(S(=O)(=O)O)c(N)c4c3C(=O)c3ccccc3C4=O)cc2)c(S(=O)(=O)O)c1 , give the reported inhibition.
Ans. 89

----------
# Target of assay: M-phase inducer phosphatase 2 (Homo sapiens) (UniProt P30305)
# Test details: Inhibition of recombinant phosphatase activity of Cdc25B catalytic domain expressed in Escherichia coli BL21(DE3) using OMFP as substrate at 50 uM by spectrofluorimetric analysis
Measured property: inhibition
Put your answer as a value accompanied by its unit after it.

Qu. For the molecule shown here, COc1cc(O)c(C(=O)c2ccccc2)cc1S(=O)(=O)O , give the reported inhibition.
Ans. 49%

Qu. For the molecule shown here, O=C(O)c1ccccc1C(=O)c1ccc(-c2ccccc2)cc1 , give the reported inhibition.
Ans. 54%

Qu. For the molecule shown here, O=C(O)c1ccccc1C(=O)CCC(=O)c1ccccc1C(=O)O , give the reported inhibition.
Ans. 20%

Qu. For the molecule shown here, CC(=O)c1ccc(C(=O)c2ccccc2C(=O)O)cc1 , give the reported inhibition.
Ans. 20%

Qu. For the molecule shown here, O=C1C=C(Nc2cccc(C(=O)O)c2)c2ccccc2C1=O , give the reported inhibition.
Ans. 85%

Qu. For the molecule shown here, O=C(O)c1cccc(Oc2ccc(C(=O)O)c([N+](=O)[O-])c2)c1 , give the reported inhibition.
Ans. 37%

Qu. For the molecule shown here, O=C(O)c1cccc(Nc2ccccc2C(=O)O)c1 , give the reported inhibition.
Ans. 18%

----------
# Target of assay: M-phase inducer phosphatase 1 (Homo sapiens) (UniProt P30304)
# Sequence (P30304 whole entry, the tested form may be a part): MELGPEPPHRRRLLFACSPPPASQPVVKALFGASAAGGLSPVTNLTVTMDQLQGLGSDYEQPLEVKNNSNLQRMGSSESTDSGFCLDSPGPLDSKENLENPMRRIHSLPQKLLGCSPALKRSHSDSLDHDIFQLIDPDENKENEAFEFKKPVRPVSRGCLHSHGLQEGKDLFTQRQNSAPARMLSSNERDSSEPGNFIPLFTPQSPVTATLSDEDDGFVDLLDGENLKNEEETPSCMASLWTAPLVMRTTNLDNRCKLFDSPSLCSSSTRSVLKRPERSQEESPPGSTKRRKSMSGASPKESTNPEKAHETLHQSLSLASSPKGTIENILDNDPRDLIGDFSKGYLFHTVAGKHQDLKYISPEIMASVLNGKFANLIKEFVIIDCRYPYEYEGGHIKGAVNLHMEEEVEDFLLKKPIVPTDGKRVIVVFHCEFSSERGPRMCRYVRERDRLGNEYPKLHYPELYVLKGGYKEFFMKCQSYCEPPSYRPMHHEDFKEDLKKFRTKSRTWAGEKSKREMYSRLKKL
# Test details: Inhibition of recombinant phosphatase activity of Cdc25A catalytic domain expressed in Escherichia coli BL21(DE3) using OMFP as substrate at 100 uM after 15 mins by fluorimetric assay
Record Met whenever inhibition is at 50% or higher; record Not met when lower.

Qu. Evaluate O=C(O)CCc1c2ccc(=O)c(O)c-2oc2c(O)c(O)ccc12 : inhibition at minimum 50%?
Ans. Met

Qu. Evaluate CC(C)(Oc1ccc(-c2cccc3ccccc23)cc1)C(=O)O : inhibition at minimum 50%?
Ans. Not met

Qu. Evaluate O=C(O)c1ccc(C(=O)c2ccccc2C(=O)O)cc1C(=O)O : inhibition at minimum 50%?
Ans. Met

Qu. Evaluate Nc1ccc(-c2ccc(Nc3cc(S(=O)(=O)O)c(N)c4c3C(=O)c3ccccc3C4=O)cc2)c(S(=O)(=O)O)c1 : inhibition at minimum 50%?
Ans. Met

Qu. Evaluate CC1=NN(c2ccc(S(=O)(=O)O)cc2)C(=O)/C1=C/c1ccc(Cl)cc1 : inhibition at minimum 50%?
Ans. Not met

Qu. Evaluate O=C(O)C1CCCN1Cc1c[nH]c2ccccc12 (centres undefined) : inhibition at minimum 50%?
Ans. Not met

Qu. Evaluate O=C(O)c1ccccc1-c1ccccc1C(=O)Nc1ccc2c(c1)nc(O)c1ccccc12 : inhibition at minimum 50%?
Ans. Met

Qu. Evaluate CC1C2C=CC1C(c1c3ccc(=O)c(O)c-3oc3c(O)c(O)ccc13)C2C(=O)O (centres undefined) : inhibition at minimum 50%?
Ans. Met

Qu. Evaluate Cn1c(COc2ccccc2C(=O)O)nc2ccccc21 : inhibition at minimum 50%?
Ans. Not met

Origin of measurements: ChEMBL document CHEMBL2057126
